# credit: ChEMBL document CHEMBL4689842

# Total Cell Count annotations
tested on: U2OS; assay: Multiplex assay against U2OS; format: toxicity, cell-based; settings: human, 24 h, 10 µM, compound concentration 10 uM, replicate 2
Just the number, please, no unit after it.

Sample records with Total Cell Count:
Ask: Could you tell me which Total Cell Count is on file for C=C1/C(=C\C=C2/CCC[C@]3(C)[C@@H]([C@H](C)/C=C/[C@H](C)C(C)C)CC[C@@H]23)C[C@@H](O)C[C@@H]1O [DOXERCALCIFEROL] ?
Reply: 83

Ask: For the compound O=C(Nc1ccc(-n2nc(-c3cccnc3)cc2C(F)(F)F)cn1)c1ccc(-c2ccccc2)c(F)c1 [BI 2049] , what Total Cell Count is on record?
Reply: 82

Ask: What does the data say about its Total Cell Count? Entry: `Cl.Oc1ccc2c3c1O[C@H]1c4[nH]c5c(c4C[C@@]4(O)[C@@H](C2)N(CC2CC2)CC[C@]314)C[C@@]1(O)[C@H]2Cc3ccc(O)c4c3[C@@]1(CCN2CC1CC1)[C@H]5O4`
Reply: 91

Okay, next one:
Ask: Form field: reported Total Cell Count of `CCn1c(=O)c(-c2ccc(-c3cncs3)cc2Cl)cc2cnc(Nc3ccc(N4CCN(C)CC4)cc3)nc21`
Reply: 83
